The values you see were collected from patent US20250281560A1.

tested_system: human peptidylarginine deiminase 4 (PAD4) (Homo sapiens)
Sequence (Q9UM07 whole entry): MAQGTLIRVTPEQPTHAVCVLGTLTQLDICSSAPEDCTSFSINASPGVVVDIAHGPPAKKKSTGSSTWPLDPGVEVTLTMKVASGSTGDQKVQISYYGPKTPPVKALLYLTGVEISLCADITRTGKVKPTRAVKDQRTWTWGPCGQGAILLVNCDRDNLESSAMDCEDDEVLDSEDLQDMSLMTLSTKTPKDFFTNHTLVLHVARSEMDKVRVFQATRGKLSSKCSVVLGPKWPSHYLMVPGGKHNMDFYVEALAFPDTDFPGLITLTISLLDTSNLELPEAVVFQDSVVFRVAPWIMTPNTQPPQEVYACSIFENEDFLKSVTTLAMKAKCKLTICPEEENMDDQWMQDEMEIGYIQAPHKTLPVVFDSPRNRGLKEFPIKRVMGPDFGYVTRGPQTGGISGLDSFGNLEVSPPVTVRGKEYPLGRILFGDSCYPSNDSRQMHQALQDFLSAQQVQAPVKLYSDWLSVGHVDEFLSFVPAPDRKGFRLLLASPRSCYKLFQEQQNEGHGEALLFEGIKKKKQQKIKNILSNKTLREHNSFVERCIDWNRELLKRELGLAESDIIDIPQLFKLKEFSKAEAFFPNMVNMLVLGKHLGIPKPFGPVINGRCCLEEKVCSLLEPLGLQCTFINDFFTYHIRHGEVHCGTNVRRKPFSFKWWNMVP
assay_notes: Inhibition of the activity of human peptidylarginine deiminase 4 by continuous spectrophotometry
setup_conditions: human PAD4, isolated component, FIG. 10
readout_kind: IC50 (µM)
Give just the numeric value; µM need not be written.

For the compound O=C(/C=C/c1ccc(O)c(O)c1)c1ccc(O)c(O)c1O [Okanin, 3,4,2′,3′,4′-pentahydroxy-trans-chalcone] , the measured IC50 on human peptidylarginine deiminase 4 (PAD4) (Homo sapiens) was 89.2
